# Tested on: Clostridium tetani
# assay.details: Antibacterial activity against Clostridium tetani MTCC 449 by broth microdilution assay method
# Assay type: functional
The label is true for MIC below 200 µg/mL and false for MIC equal to or exceeding 200 µg/mL.

O=C1CCSC(c2ccc(O)cc2)N1CCCCNc1ccnc2cc(Cl)ccc12 (configuration not stated) : false
O=C1CCSC(c2cccc(Cl)c2)N1CCCCNc1ccnc2cc(Cl)ccc12 (configuration not stated) : false
O=C1CCSC(c2ccc(Cl)cc2)N1CCNc1ccnc2cc(Cl)ccc12 (configuration not stated) : true

Is it true that MIC reported for COc1cccc(C2SCCC(=O)N2CCNc2ccnc3cc(Cl)ccc23)c1 (configuration not stated) is less than 200 µg/mL?
false

Does the reported MIC of O=C1CCSC(c2ccc(O)cc2)N1CCNc1ccnc2cc(Cl)ccc12 (configuration not stated) stay below 200 µg/mL?
false

A record lists O=C1CCSC(c2ccc(Br)cc2)N1CCCCNc1ccnc2cc(Cl)ccc12 (configuration not stated) . Is its MIC below 200 µg/mL?
false

A record lists Cc1ccc(C2SCCC(=O)N2CCCCNc2ccnc3cc(Cl)ccc23)cc1 (configuration not stated) . Is its MIC below 200 µg/mL?
false

# TODO verify MIC < 200 µg/mL strictly for this compound: O=C1CCSC(c2ccc(Br)cc2)N1CCCNc1ccnc2cc(Cl)ccc12 (configuration not stated)
true

Please state whether MIC is below 200 µg/mL for O=C(NN1C(=O)CCSC1c1ccccc1)c1cnc2c(C(F)(F)F)cccc2c1O (configuration not stated)
false

In plain terms, does O=C1CCSC(c2ccccc2)N1CCCNc1ccnc2cc(Cl)ccc12 (configuration not stated) come in under 200 µg/mL for MIC?
false

Report whether reported MIC is lower than 200 µg/mL (strictly) for COc1cccc(C2SCCC(=O)N2CCCNc2ccnc3cc(Cl)ccc23)c1 (configuration not stated)
false

Please check: MIC for Cc1ccc(C2SCCC(=O)N2CCCNc2ccnc3cc(Cl)ccc23)cc1 (configuration not stated) , strictly under 200 µg/mL or not?
false

Strictly below 200 µg/mL in MIC? CCn1cc(C(=O)O)c(=O)c2cc(F)c(N3CCNCC3)cc21
true

Record O=C1CCSC(c2cccc(F)c2)N1CCNc1ccnc2cc(Cl)ccc12 (configuration not stated) : is its MIC strictly below 200 µg/mL?
false

Could you please tell me whether MIC recorded for O=C1CCSC(c2ccc(Br)cc2)N1CCNc1ccnc2cc(Cl)ccc12 (configuration not stated) is less than 200 µg/mL?
true

Problem: For the compound COc1ccc(C2SCCC(=O)N2CCCCNc2ccnc3cc(Cl)ccc23)cc1 (configuration not stated) , is MIC under 200 µg/mL?
false

Find out if reported MIC for O=C1CCSC(c2ccc(Cl)cc2)N1CCCCNc1ccnc2cc(Cl)ccc12 (configuration not stated) is less than 200 µg/mL
true

Is MIC strictly under 200 µg/mL for the entry COc1ccc(C2SCCC(=O)N2NC(=O)c2cnc3c(C(F)(F)F)cccc3c2O)cc1 (configuration not stated) ?
false

Confirm or reject: MIC of COc1cccc(C2SCCC(=O)N2NC(=O)c2cnc3c(C(F)(F)F)cccc3c2O)c1 (configuration not stated) lies strictly below 200 µg/mL
false

Would you kindly verify if MIC of Cc1ccc(C2SCCC(=O)N2CCNc2ccnc3cc(Cl)ccc23)cc1 (configuration not stated) is strictly less than 200 µg/mL?
false
